# Tested on: A498 renal
# EXPERIMENT_DESCRIPTION: NCI-60 one-dose screen, 48 h (100 = growth as untreated, 0 = no growth, -100 = all killed)
# ASSAY_CONTEXT: 10 µM unless noted
The panel holds about 83,000 compounds, 20% with a hit somewhere; the sample as a whole holds those more often.
Kindly supply the reported growth values for the records listed here.
One number for each entry, in %.

Look over these answered cases.
>>> print(df.to_string())
                                   molecule  endpoint_result
0  COc1ccc(C2CC(c3cccs3)=NN2c2ccc(S(=O)(=O)NC(=O)NCc3cccc(OC)c3)cc2)cc1 (stereo unspecified)              102
1  O=[N+]([O-])c1c(S(=O)(=O)O)cc2cc(S(=O)(=O)O)ccc2c1[N+](=O)[O-]              106
2        Nc1nn2cc(-c3ccc(Cl)s3)nc2c2ccccc12             59.5
3  COc1ccc(/C=C/C(=O)c2ccc(NC(=O)CN3CCN(c4cc5c(cc4F)c(=O)c(C(=O)O)cn5C4CC4)CC3)cc2)cc1              112
4  O=C1NCC(c2cc3ccccc3[nH]c2=O)Nc2ccccc21 (stereo unspecified)              104
5  CC(C)(C)c1cn2cccc(C(=O)N3CCN(CC(=O)Nc4ccc(Cl)cc4C(=O)c4ccccc4Cl)CC3)c2n1           -0.735
6      COC(=O)c1cc(-c2cccs2)c(C#N)c(N)c1C#N              104
7  CC(=O)OCC1OC(OCC2OC(OC(C)=O)C(OC(C)=O)C(OC(C)=O)C2OC(C)=O)C(OC(C)=O)C(OC(C)=O)C1OC(C)=O (stereo unspecified)               87

Items follow; give growth for each.
1. COc1cc(OC)cc(-c2n[nH]nc2-c2ccc3c(c2)OCO3)c1
2. O=C(O)C(=Cc1c2ccccc2cc2ccccc12)C(=O)O
3. Nc1nc(Cl)c2c(ncn2Cc2ccc(CCl)cc2)n1
4. O=C1OC(c2ccccc2)=N/C1=C\c1ccc([N+](=O)[O-])cc1
5. CC(Br)C(Br)c1cc2c(cc1Br)OCO2 (stereo unspecified)

1. -1.56
2. 83.3
3. 97.3
4. 87.4
5. 99.3
